Every entry's value here was drawn from PubChem BioAssay (NCATS).

experiment: qHTS of pediatric cancer cell lines to identify multiple opportunities for drug repurposing: Primary screen for A673 cells (AID 1347092); details: A673 Ewing sarcoma viability, CellTiter-Glo ATP luminescence, 48 h; series mostly up to 46 µM; note: nearly all actives have a fitted effect of over 45% in size
Results filed as inconclusive are left out. The source made the active and inactive calls. Calls come from the whole dose curve; as a rule, active = well fitted cell-killing curve with a large enough effect; inconclusive = small, poorly fitted or top-dose-only effect; inactive = no such curve, though single readings can be large or run the other way.
Outcomes: true (1) for active, false (0) for inactive

>>> class_label("O=C(CCOCCOCCOCCOCCC(=O)Nc1c(I)cc(I)c(C(=O)O)c1I)Nc1c(I)cc(I)c(C(=O)O)c1I")
"false (0)"
>>> class_label("CC(=O)O[C@@H]1C(=O)O[C@@H]2[C@H]1OC(=O)[C@@H]2OC(C)=O")
"true (1)"
>>> class_label("CN1Cc2cc(C(=O)N3CCC(C4CCNCC4)CC3)ccc2N[C@@H](CC(=O)O)C1=O")
"false (0)"
>>> class_label("COc1ccc(/C(C)=C/C(=O)O)c(OC)c1")
"false (0)"
>>> class_label("Cc1ccccc1N1CCN(CCc2nnc3n2CCCC3)CC1")
"false (0)"
>>> class_label("CCC(=O)Oc1ccc2c(c1)CC[C@@H]1[C@@H]2CC[C@@]2(C)[C@H]1C[C@@H](OC(=O)CC)[C@@H]2OC(=O)CC")
"false (0)"
>>> class_label("NC(=O)NS(=O)(=O)c1ccc(Cl)cc1")
"false (0)"
>>> class_label("CC(=O)c1ccc(O)c(C(N)=O)c1")
"false (0)"
>>> class_label("CCCCCCCCCCCCCCCCCCNC(=O)OC1CCN(C(=O)OC[C@H](COC(=O)N(Cc2cccc[n+]2CC)C(=O)c2ccccc2OC)OC)CC1")
"true (1)"
>>> class_label("NC(=O)COCCN1CCN(C(c2ccccc2)c2ccc(Cl)cc2)CC1 (stereo not given)")
"false (0)"

---

tested on: Tov112D; experiment: Primary qHTS to identify gynecologic anti-cancer compounds using libraries of approved drugs and bioactive compounds (AID 1345084); details: Gynecologic cancer cell panel viability, ATPlite luminescence, 48 h; series mostly up to 57.5 µM; note: nearly all actives have a fitted effect of over 55% in size
Records with an inconclusive call do not appear. Active and inactive are the calls of the source. The call rests on the fitted dose curve; in most records, active means well fitted cell-killing curve with a large enough effect; inconclusive means small, poorly fitted or top-dose-only effect, or effect the other way; inactive means flat fitted curve, though single readings scatter.
measured quantity: outcome

>>> measured_value("Nc1ccc([N+](=O)[O-])c(C(F)(F)F)c1")
"inactive"
>>> measured_value("Nc1ccc(O)cc1")
"inactive"
>>> measured_value("COc1ccccc1N1CCN(CCN2C(=O)CC3(CCCC3)CC2=O)CC1")
"inactive"
>>> measured_value("CC(=O)OCC(=O)[C@@]1(O)[C@H](OC(C)=O)C[C@H]2[C@@H]3CCC4=CC(=O)C=C[C@]4(C)[C@@]3(F)[C@@H](O)C[C@@]21C")
"inactive"
>>> measured_value("COc1ccc(CCC(C)=O)cc1")
"inactive"
>>> measured_value("Cc1oc(-c2ccccc2)nc1CCC(=O)c1ccc(CC2SC(=O)NC2=O)cc1 (stereo not drawn)")
"inactive"
>>> measured_value("O=C(CCCl)NCc1ccccc1")
"inactive"
>>> measured_value("OCCc1ccccc1")
"inactive"

---

test system: UISO; test: qHTS assay to identify novel small-molecules to repurpose for Merkel cell carcinoma treatment (AID 1296009); details: MCC and control cell lines, CellTiter-Glo viability, 72 h; series mostly up to 46 µM; note: nearly all actives have a fitted effect of over 60% in size
Inconclusive results are not listed. Activity calls are given as the source filed them. Calls come from the whole dose curve; as a rule, active = well fitted inhibition curve with a large enough effect; inconclusive = small, poorly fitted or top-dose-only effect; inactive = flat fitted curve, though single readings scatter.
Outcomes: active, inactive

>>> class_label("CNC[C@H](O)[C@@H](O)[C@H](O)[C@H](O)CO")
"inactive"
>>> class_label("CN1C(=O)CC(C)(c2ccccc2)C1=O (stereo not given)")
"inactive"
>>> class_label("O=C(O)[C@H](O)[C@@H](O)[C@H](O[C@@H]1O[C@H](CO)[C@H](O)[C@H](O)[C@H]1O)[C@H](O)CO")
"inactive"
>>> class_label("CC(C)(C)C(=O)OCOC(=O)C1N2C(=O)CC2S(=O)(=O)C1(C)C (stereo not given)")
"inactive"
>>> class_label("CCC(=O)Oc1ccc2c(c1)CC[C@@H]1[C@@H]2CC[C@@]2(C)[C@H]1C[C@@H](OC(=O)CC)[C@@H]2OC(=O)CC")
"inactive"
>>> class_label("O=C1CCCc2c(O)cccc21")
"inactive"
>>> class_label("O=C(C1CCCCC1)N1CC(=O)N2CCCc3ccccc3C2C1 (stereo not given)")
"inactive"
>>> class_label("CO/N=C(\\C(=O)O)c1csc(NC(=O)CCl)n1")
"inactive"
>>> class_label("CN1CC[C@H](c2c(O)cc(O)c3c(=O)cc(-c4ccccc4Cl)oc23)[C@H](O)C1")
"active"
>>> class_label("CCOC(=O)[C@H](CCc1ccccc1)N[C@@H](C)C(=O)N(CC(=O)O)C1Cc2ccccc2C1")
"inactive"
